Test system: NCI/ADR-RES ovarian
Assay: NCI-60 one-dose screen, 48 h (100 = growth as untreated, 0 = no growth, -100 = all killed)
Details: 10 µM unless noted
This is part of a sample that, as a whole, favours compounds with a hit. Of some 83,000 tested, about 20% had one in any assay.
Note to self: values exactly at 20% are Y. So growth at or above 20% is Y, below is N.

Reference set, count: 3
[[record]]
molecule = "CC(C)c1sc(NC(=O)c2cc(NC(=O)c3cc(NC(=O)c4nccn4C)cn3C)cn2C)nc1C(=O)NCCCN(C)C"
discrete_label = "Y"

[[record]]
molecule = "COc1ccc(NC(=O)Cn2c(/C=C/c3cccc([N+](=O)[O-])c3)nc3ccccc3c2=O)cc1"
discrete_label = "Y"

[[record]]
molecule = "COc1cc2oc(-c3cccc(C(=O)Nc4ccc(Cl)cc4)c3)cc(=O)c2c(OCCNC(=O)[C@H](CCC(=O)OC(C)(C)C)NC(=O)OC(C)(C)C)c1OC"
discrete_label = "Y"


Can Cc1c(C(=O)NNC(=O)Nc2ccc(Cl)cc2)nnn1-c1ccc(Br)cc1 be said to have growth at or above 20%?
Y
